Taken from ChEMBL document CHEMBL3588787.

# test target: Lysine-specific demethylase 5A (Homo sapiens)
# experiment: Inhibition of JARID1A overexpressed in human A549 cells assessed as H3K4me3/H3 ratio at 100 uM after 24 hrs by Western blot analysis
# Type: cell-based
Kindly supply the reported Ratio values for the records listed here.
Lab note: record just the number, no unit beside it.

# get_value(readout='Ratio', item= CCCCCCN(C)CCCCC(=O)N(O)CCC(=O)O )
1.01

// query Ratio value for entry CCCCCCN(C)CCCCC(=O)N(O)CCC(=O)OC
1.39

// Ratio lookup, key: CCCCCN(C)CCCCC(=O)N(O)CCC(=O)OC
1.38

Form field: reported Ratio of CCCCCN(C)CCCCC(=O)N(O)CCC(=O)O
1.04

---

parameter measured: log10 IC50 (log10 of the value in µM)
Please keep in mind that the values are log10 of IC50 expressed in µM.

Lab request: please report log10 IC50 under test system Lysine-specific demethylase 5A (Homo sapiens, UniProt P29375) for CCCN(C)CCCCC(=O)N(O)CCC(=O)O
0.95

What measured log10 IC50 is associated with CCCCCCN(CCCC)CCCCC(=O)N(O)CCC(=O)O on Lysine-specific demethylase 5A (Homo sapiens, UniProt P29375)?
0.65

API: value(readout= log10 IC50, system= Lysine-specific demethylase 5A (Homo sapiens, UniProt P29375), query= CCCCN(C)CCCCCC(=O)N(O)CCC(=O)O )
0.60

Form entry - test system: Lysine-specific demethylase 5A (Homo sapiens, UniProt P29375); read-out: log10 IC50; compound: CCCCN(C)CCCC(=O)N(O)CCC(=O)O
Sequence (P29375 whole entry): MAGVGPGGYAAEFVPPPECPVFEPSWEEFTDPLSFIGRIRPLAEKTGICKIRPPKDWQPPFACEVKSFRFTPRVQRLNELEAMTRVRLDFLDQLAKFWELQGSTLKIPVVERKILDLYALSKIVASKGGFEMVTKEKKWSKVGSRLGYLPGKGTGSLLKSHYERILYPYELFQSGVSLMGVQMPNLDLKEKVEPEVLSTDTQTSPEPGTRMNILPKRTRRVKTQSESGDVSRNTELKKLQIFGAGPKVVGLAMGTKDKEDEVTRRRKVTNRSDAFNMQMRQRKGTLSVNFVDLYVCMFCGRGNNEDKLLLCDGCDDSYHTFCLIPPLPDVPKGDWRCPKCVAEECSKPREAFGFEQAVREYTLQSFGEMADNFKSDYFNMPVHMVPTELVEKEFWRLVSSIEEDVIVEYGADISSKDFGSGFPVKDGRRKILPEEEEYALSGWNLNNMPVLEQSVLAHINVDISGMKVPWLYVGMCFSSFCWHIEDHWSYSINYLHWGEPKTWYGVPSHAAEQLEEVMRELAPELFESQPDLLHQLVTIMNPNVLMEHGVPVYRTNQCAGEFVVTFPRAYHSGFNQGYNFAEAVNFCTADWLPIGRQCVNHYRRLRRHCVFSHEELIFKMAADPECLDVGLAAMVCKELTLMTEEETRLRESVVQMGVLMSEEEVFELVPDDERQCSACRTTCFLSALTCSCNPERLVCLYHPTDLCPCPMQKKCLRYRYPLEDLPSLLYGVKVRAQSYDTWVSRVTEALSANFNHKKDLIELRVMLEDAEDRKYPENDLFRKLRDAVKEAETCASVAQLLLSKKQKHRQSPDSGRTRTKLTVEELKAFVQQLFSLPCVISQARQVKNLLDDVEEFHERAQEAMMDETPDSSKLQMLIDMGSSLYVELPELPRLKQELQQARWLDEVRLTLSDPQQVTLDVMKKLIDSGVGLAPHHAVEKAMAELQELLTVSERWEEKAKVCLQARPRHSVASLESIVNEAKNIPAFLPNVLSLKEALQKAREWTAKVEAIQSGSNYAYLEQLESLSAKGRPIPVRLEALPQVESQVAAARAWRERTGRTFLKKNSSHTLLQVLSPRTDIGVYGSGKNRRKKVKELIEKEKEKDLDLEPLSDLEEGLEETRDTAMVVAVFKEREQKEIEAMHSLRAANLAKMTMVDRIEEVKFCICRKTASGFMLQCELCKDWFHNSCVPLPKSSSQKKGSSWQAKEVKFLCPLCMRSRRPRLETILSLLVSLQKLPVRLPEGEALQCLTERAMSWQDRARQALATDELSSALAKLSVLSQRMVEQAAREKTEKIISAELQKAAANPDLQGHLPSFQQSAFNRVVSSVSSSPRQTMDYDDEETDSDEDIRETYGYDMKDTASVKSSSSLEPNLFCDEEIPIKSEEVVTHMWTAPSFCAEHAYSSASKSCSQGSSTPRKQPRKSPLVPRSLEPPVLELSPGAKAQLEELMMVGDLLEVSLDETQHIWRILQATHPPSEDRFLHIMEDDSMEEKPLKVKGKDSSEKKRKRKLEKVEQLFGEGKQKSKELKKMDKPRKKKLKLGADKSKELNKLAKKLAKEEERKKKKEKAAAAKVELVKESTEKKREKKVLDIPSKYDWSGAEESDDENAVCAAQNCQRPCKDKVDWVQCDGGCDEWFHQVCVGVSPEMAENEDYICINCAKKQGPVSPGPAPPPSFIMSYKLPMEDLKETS
0.80

Checklist item: log10 IC50 tested on Lysine-specific demethylase 5A (Homo sapiens, UniProt P29375), entry CCCCN(C)CCCCCCC(=O)N(O)CCC(=O)O , value?
0.26

API: value(readout= log10 IC50, system= Lysine-specific demethylase 5A (Homo sapiens, UniProt P29375), query= CCCCCCCCN(CCCC)CCCCC(=O)N(O)CCC(=O)O )
0.49

What is its log10 IC50 for Lysine-specific demethylase 5A (Homo sapiens, UniProt P29375)? Entry: CCCCN(CC)CCCCC(=O)N(O)CCC(=O)O
1.15

Value wanted: log10 IC50 (Lysine-specific demethylase 5A (Homo sapiens, UniProt P29375)) of entry CCCCN(CCCC)CCCCC(=O)N(O)CCC(=O)O
1.28

Look up log10 IC50 with Lysine-specific demethylase 5A (Homo sapiens, UniProt P29375) for this compound: O=C(O)CNC(=O)C(=O)O [N-OXALYLGLYCINE]
2.40

Kindly state the measured log10 IC50 obtained for CCN(C)CCCCC(=O)N(O)CCC(=O)O with Lysine-specific demethylase 5A (Homo sapiens, UniProt P29375).
0.89

Provide value of log10 IC50 for this record tested with Lysine-specific demethylase 5A (Homo sapiens, UniProt P29375): CCCCCN(C)CCCCC(=O)N(O)CCC(=O)O
0.36

---

parameter measured: IC50 (µM)
Give the value in µM but do not write µM after it.

State its IC50 on Lysine-specific demethylase 4C (Homo sapiens, UniProt Q9H3R0): CCN(C)CCCCC(=O)N(O)CCC(=O)O
Sequence (Q9H3R0 whole entry): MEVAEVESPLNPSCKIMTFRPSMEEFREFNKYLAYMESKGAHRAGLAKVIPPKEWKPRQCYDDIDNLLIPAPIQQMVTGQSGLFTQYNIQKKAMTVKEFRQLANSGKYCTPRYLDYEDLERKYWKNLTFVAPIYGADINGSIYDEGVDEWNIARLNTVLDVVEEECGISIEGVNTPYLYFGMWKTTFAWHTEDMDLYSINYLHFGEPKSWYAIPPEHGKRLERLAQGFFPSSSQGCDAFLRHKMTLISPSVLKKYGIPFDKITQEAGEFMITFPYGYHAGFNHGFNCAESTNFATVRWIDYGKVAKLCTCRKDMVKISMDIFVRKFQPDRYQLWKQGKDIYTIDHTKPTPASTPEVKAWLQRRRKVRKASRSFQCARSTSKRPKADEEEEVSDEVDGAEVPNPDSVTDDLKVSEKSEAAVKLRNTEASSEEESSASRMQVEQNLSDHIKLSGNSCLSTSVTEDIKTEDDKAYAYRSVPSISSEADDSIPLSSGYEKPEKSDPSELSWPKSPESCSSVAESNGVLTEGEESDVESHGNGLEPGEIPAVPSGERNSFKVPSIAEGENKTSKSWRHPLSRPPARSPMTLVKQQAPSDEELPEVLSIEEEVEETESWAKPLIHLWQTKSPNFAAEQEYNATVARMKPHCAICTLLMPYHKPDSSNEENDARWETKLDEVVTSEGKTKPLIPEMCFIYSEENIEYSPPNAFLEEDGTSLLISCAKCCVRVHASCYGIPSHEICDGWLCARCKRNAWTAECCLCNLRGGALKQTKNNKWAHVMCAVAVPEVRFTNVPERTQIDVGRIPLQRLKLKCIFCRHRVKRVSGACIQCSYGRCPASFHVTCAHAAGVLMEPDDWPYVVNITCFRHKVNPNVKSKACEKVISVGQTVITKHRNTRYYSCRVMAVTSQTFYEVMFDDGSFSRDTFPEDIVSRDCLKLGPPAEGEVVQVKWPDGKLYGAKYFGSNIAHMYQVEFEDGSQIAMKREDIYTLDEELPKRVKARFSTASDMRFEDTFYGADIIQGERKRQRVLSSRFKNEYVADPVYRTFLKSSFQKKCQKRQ
62

Query the reported IC50 for Lysine-specific demethylase 4C (Homo sapiens, UniProt Q9H3R0); item: CCCCCCCCN(CCCC)CCCCC(=O)N(O)CCC(=O)O
83

Fill in the recorded IC50 for this molecule, with Lysine-specific demethylase 4C (Homo sapiens, UniProt Q9H3R0) as test system: CCCCCCN(C)CCCCC(=O)N(O)CCC(=O)O
43

Field: IC50 (Lysine-specific demethylase 4C (Homo sapiens, UniProt Q9H3R0)). Entry: CN(C)CCCCC(=O)N(O)CCC(=O)O
51

Observed IC50 on Lysine-specific demethylase 4C (Homo sapiens, UniProt Q9H3R0) for CCCN(C)CCCCC(=O)N(O)CCC(=O)O , please.
76

Query the reported IC50 for Lysine-specific demethylase 4C (Homo sapiens, UniProt Q9H3R0); item: CCCCN(C)CCCCCCC(=O)N(O)CCC(=O)O
6.5
